target: Sulfonylurea receptor 1, Kir6.2 (Homo sapiens) (UniProt Q14654+Q09428); assay: Binding affinity to sulfonylurea receptor in pancreatic islet beta cell membranes
Calls of active or inactive are those of the source. The rule behind the calls is not given here.
Possible outcomes: active, inactive

compound: COc1ccc2c(c1OC)C[N+]1(Cc3ccccc3)CCc3cc4c(cc3C1C2)OCO4 (stereo not given)
assigned-class: active

compound: COc1ccc2c(c1OC)CN1CCc3cc4c(cc3[C@@H]1C2)OCO4
assigned-class: inactive

compound: c1ccc2c[n+]3c(cc2c1)-c1cc2c(cc1CC3)OCO2
assigned-class: active

compound: COc1ccc2cc3[n+](cc2c1)CCc1cc2c(cc1-3)OCO2
assigned-class: inactive

compound: c1ccc(COc2ccc3c[n+]4c(cc3c2)-c2cc3c(cc2CC4)OCO3)cc1
assigned-class: inactive

compound: c1ccc2c(c1)CC1c3cc4c(cc3CCN1C2)OCO4 (stereo not given)
assigned-class: inactive

compound: COc1ccc2cc3[n+](cc2c1O)CCc1cc2c(cc1-3)OCO2
assigned-class: active

compound: c1ccc(C[N+]23CCc4cc5c(cc4C2Cc2ccccc2C3)OCO5)cc1 (stereo not given)
assigned-class: active

compound: COc1ccc2cc3[n+](cc2c1OC)CCc1cc2c(cc1-3)OCO2.[Cl-] [BERBERINE CHLORIDE]
assigned-class: active

compound: COc1ccc2cc3[n+](cc2c1OC)CCc1cc(OC(C)=O)c(OC(C)=O)cc1-3
assigned-class: inactive

====

target: Sulfonylurea receptor 1, Kir6.2 (Homo sapiens) (UniProt Q14654+Q09428); assay: Binding affinity to sulfonylurea receptor in pancreatic islet beta cell membranes
Activity calls are given as the source filed them. No cut-off for these calls is given here.

molecule: COc1ccc2c(c1)C(=O)N(CCc1ccc(S(=O)(=O)NC(=O)NC3CCCCC3)cc1)C(=O)C2(C)C
Activity: Active
//
molecule: COc1cc2c(cc1OC)-c1cc3ccc(OC)c(OC)c3c[n+]1CC2
Activity: inactive
//
molecule: COc1ccc2c(c1OC)C[N+]1(C)CCc3cc4c(cc3C1C2)OCO4 (stereo not drawn)
Activity: inactive
//
molecule: COc1cccc2cc3[n+](cc12)CCc1cc2c(cc1-3)OCO2
Activity: inactive
//
molecule: CC[N+]12CCc3cc4c(cc3C1Cc1ccc(OC)c(OC)c1C2)OCO4 (stereo not drawn)
Activity: inactive
//
molecule: COc1ccc2cc3[n+](cc2c1OC)CCc1cc(O)c(O)cc1-3
Activity: inactive
//
molecule: COc1ccc2c[n+]3c(cc2c1)-c1cc2c(cc1CC3)OCO2
Activity: inactive
//
molecule: COc1ccc2c(c1OC)C[N+]1([O-])CCc3cc4c(cc3C1C2)OCO4 (stereo not drawn)
Activity: Active

====

# log10 Activity per entry
test: Reduction of blood glucose level in alloxan induced diabetic mice at 200 mg/kg; type: functional, organism-based; design: dose 200 mg/kg; conditions: Mus musculus, target entry is the homologue from another species
endpoint: log10 Activity (log10 of the value in mg/dL)

compound: COc1ccc2c(c1OC)C[N+]1([O-])CCc3cc4c(cc3C1C2)OCO4 (stereo unspecified)
result-number: 1.36

compound: c1ccc2c[n+]3c(cc2c1)-c1cc2c(cc1CC3)OCO2
result-number: 1.83

compound: COc1ccc2cc3[n+](cc2c1OC)CCc1cc2c(cc1-3)OCO2.[Cl-] [BERBERINE CHLORIDE]
result-number: 1.79

compound: COc1ccc2c(c1OC)C[N+]1(Cc3ccccc3)CCc3cc4c(cc3C1C2)OCO4 (stereo unspecified)
result-number: 2.16

compound: COc1ccc2c(c1)C(=O)N(CCc1ccc(S(=O)(=O)NC(=O)NC3CCCCC3)cc1)C(=O)C2(C)C
result-number: 2.21

compound: COc1ccc2cc3[n+](cc2c1O)CCc1cc2c(cc1-3)OCO2
result-number: 1.08
